Reference source: patent US20240391954A1

# targetOrSystem: human MC4R (Homo sapiens)
# Construct: host or cells: HEK-293 cells stably expressing the GScAMP22F split-luciferase cAMP sensor and hMC4R, G418 selection
# Sequence (P32245 whole entry): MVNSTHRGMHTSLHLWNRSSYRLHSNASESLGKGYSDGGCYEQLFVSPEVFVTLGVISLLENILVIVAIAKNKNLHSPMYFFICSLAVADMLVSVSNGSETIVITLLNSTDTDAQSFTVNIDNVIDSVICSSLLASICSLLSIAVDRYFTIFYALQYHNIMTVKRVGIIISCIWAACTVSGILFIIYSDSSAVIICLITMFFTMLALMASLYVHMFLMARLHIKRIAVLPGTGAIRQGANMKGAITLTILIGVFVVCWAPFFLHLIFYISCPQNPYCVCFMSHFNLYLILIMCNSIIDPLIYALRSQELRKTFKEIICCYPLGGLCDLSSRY
# protocol: split-luciferase cAMP sensor assay, agonist mode (measurement window 1), hMC4R
# Format: cell-based
# experimentalConditions: % maximal activation, agonist mode; read-out: MC4R cAMP % max activation
Positions of bridges follow the written chain, without caps; N, C: chain ends. Non-standard residues stand in square brackets, D forms with d. Residues, ends and D or L forms follow the SMILES beside them. d(αMeF) = C[C@@](N)(Cc1ccccc1)C(=O)O; Aib = CC(C)(N)C(=O)O
observationType: Emax (%)
Answer format: numeric, % implied, no suffix.

- molecule: "CC(=O)N[C@@H](CCCNC(=N)N)C(=O)N[C@H]1CSSC[C@@H](C(N)=O)NC(=O)[C@H](Cc2ccccc2)NC(=O)[C@H](CCCNC(=N)N)NC(=O)[C@@H](Cc2ccccc2)NC(=O)[C@H](CCCNC(=N)N)NC(=O)C(C)(C)NC1=O [CTX-1601, Arg-cyclo(Cys-Aib-Arg-D-Phe-Arg-Phe-Cys)] (Ac-RC[Aib]R[dF]RFC-NH2; disulfide 2-8)"
  Emax / %: 97

Continue with the next molecule.
Exercise: Determine its reported Emax: CC(=O)N[C@@H](CCCNC(=N)N)C(=O)N[C@H]1CSSC[C@@H](C(N)=O)NC(=O)[C@H](Cc2c[nH]c3ccccc23)NC(=O)[C@H](CCCNC(=N)N)NC(=O)[C@@](C)(Cc2ccccc2)NC(=O)[C@H](CCCNC(=N)N)NC(=O)[C@@H](C)NC1=O [CTX-1278] (Ac-RC[dA]R[d(αMeF)]RWC-NH2; disulfide 2-8 (inferred))
Key: 105
